- experimental.system: T1, recombinant human MASP1 active protease (amino acids 297-699, C-terminal His Tag) (human, UniProt P48740 297-699)
- T1 sequence: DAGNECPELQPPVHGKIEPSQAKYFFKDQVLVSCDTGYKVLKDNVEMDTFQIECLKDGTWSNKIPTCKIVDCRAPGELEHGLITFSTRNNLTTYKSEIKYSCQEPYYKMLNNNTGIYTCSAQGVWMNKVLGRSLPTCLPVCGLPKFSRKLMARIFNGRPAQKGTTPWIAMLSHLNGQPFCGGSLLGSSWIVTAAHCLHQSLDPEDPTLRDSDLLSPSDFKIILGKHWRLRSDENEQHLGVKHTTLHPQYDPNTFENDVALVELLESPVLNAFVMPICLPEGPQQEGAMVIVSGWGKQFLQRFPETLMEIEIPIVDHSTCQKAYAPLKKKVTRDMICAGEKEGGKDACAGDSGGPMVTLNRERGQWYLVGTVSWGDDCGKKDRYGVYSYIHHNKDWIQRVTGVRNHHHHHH
- run.description: cell-based or functional assay
Numbered stars: 1 amine (or outer) side, 2 acyl side, 3 side chain; on linkers, the order of the positions; unused ones are H or OH. Bridge positions count the residues as written; N and C are the ends. Square brackets hold non-standard residues; d marks the D form. Ends that are not written are not given here. X7 = 4‑(3,5-Dimethyl-1,2-oxazol-4-yl)‑L‑phenylalanine, Cc1noc(C)c1-c1ccc(C[C@H](N[*:1])C(=O)[*:2])cc1; Oic = O=C(O)[C@@H]1C[C@@H]2CCCC[C@@H]2N1; tBuAla = CC(C)(C)C[C@H](N)C(=O)O; Pen = CC(C)(S)[C@H](N)C(=O)O; NMeA = CN[C@@H](C)C(=O)O
Would you mind telling me the reported human MASP1 IC50 of each entry?
Answers are plain numbers, in nM.

Recorded results for 2 binders are shown here.
[X7]ICSRSLP[Oic]I[Pen]IP-NH2 (disulfide 3-11; N-terminus assumed; SMILES CC[C@H](C)[C@H](NC(=O)[C@@H](N)Cc1ccc(-c2c(C)noc2C)cc1)C(=O)N[C@H]1CSSC(C)(C)[C@@H](C(=O)N[C@H](C(=O)N2CCC[C@H]2C(N)=O)[C@@H](C)CC)NC(=O)[C@H]([C@@H](C)CC)NC(=O)[C@@H]2C[C@@H]3CCCC[C@@H]3N2C(=O)[C@@H]2CCCN2C(=O)[C@H](CC(C)C)NC(=O)[C@H](CO)NC(=O)[C@H](CCCNC(=N)N)NC(=O)[C@H](CO)NC1=O) [Example 360: (4-(3,5-Dimethyl-1,2-oxazol-4-yl)-L-phenylalanine)-IC+SRSLP-(Oic)-I-(Pen)+IP-NH2]	31
[NMeA]ICSRS[tBuAla]P[(3R,6R)‑1,1‑Difluoro‑5‑azaspiro(2.4)heptane‑6‑carboxylic acid (enantiomer 2)]I[Pen]IP-NH2 (disulfide 3-11)	3

Let us move to another entry and its human MASP1 IC50.
Return reported human MASP1 IC50; argument: ICSRSLP[Oic]I[Pen]IPQ-NH2 (disulfide 2-10; N-terminus assumed; SMILES CC[C@H](C)[C@H](N)C(=O)N[C@H]1CSSC(C)(C)[C@@H](C(=O)N[C@H](C(=O)N2CCC[C@H]2C(=O)N[C@@H](CCC(N)=O)C(N)=O)[C@@H](C)CC)NC(=O)[C@H]([C@@H](C)CC)NC(=O)[C@@H]2C[C@@H]3CCCC[C@@H]3N2C(=O)[C@@H]2CCCN2C(=O)[C@H](CC(C)C)NC(=O)[C@H](CO)NC(=O)[C@H](CCCNC(=N)N)NC(=O)[C@H](CO)NC1=O) [Example 377: IC+SRSLP-(Oic)-I-(Pen)+IPQ-NH2]
37
